Tested on: Diabrotica balteata
Test: Diabrotica balteata spray test
Format: in vivo
Conditions: 168 h, application rate 100 g/ha (=32 μg/well), wheat seeds, larvae, after 7 days, read-out: activity (efficacy: 100% means all seedlings have grown up like in the untreated, uninfected control)
RECORDED METRIC: pest or weed control at 32 µg/disc, 100 g/ha (%)
Report only the number, with the unit % understood.

Example molecules with recorded pest or weed control at 32 µg/disc, 100 g/ha:
[[record]]
molecule = "COc1nc([C@H](C)NC(=O)c2cc(C(F)(F)F)cc(C(F)(F)F)c2)n(-c2ccc(C#N)cn2)n1"
reported_measurement = 100

[[record]]
molecule = "C[C@H](NC(=O)c1cc(Cl)cc(C(F)(F)F)c1)c1nc(C2CC2)nn1-c1ccc(C#N)cn1"
reported_measurement = 100

[[record]]
molecule = "C[C@H](NC(=O)c1cc(Cl)cc(C(F)(F)F)c1)c1ncnn1-c1ccc(C(=O)N(CC(F)(F)F)C2CC2)cn1"
reported_measurement = 100

[[record]]
molecule = "C[C@H](NC(=O)c1cc(Cl)cc(OC(F)(F)F)c1)c1ncnn1-c1cc(C#N)ccn1"
reported_measurement = 100

[[record]]
molecule = "CC[C@H](NC(=O)c1cc(Cl)cc(C(F)(F)F)c1)c1ncnn1-c1ncc(OC(F)F)cn1"
reported_measurement = 100


Entry Cc1nc([C@H](C)NC(=O)c2cc(Br)cc(OC(F)(F)F)c2)n(-c2ccc(C#N)cn2)n1 ; pest or weed control at 32 µg/disc, 100 g/ha = 100

Reported pest or weed control at 32 µg/disc, 100 g/ha ( C[C@H](NC(=O)c1cccc(Cl)n1)c1ncnn1-c1ccc(C#N)cn1 ) = 100

The measured pest or weed control at 32 µg/disc, 100 g/ha associated with Cc1nc([C@H](C)NC(=O)c2cc(Br)cc(OC(F)(F)F)c2)n(-c2cc(C#N)ccn2)n1 reads 100

Entry CC(C)Oc1nc([C@H](C)NC(=O)c2cc(C(F)(F)F)cc(C(F)(F)F)c2)n(-c2ccc(C#N)cn2)n1 ; pest or weed control at 32 µg/disc, 100 g/ha = 100

Query CCSc1cc(C#N)cc(C(=O)N[C@@H](C)c2ncnn2-c2ccc(C#N)cn2)c1 yields pest or weed control at 32 µg/disc, 100 g/ha of 100
